Form field: TGI (one value per entry).
tested on: HL-60(TB) leukemia; test: NCI tumour cell line growth inhibition, 48 h
value type: TGI

{"columns": ["molecule", "value type", "result"],
 "data": [
  ["O=C(Nc1c(Cl)cc([N+](=O)[O-])cc1Cl)C(=O)C1C(=O)NC(=S)NC1=O", "TGI", "> 100 µM"],
  ["C[N+](C)([O-])CCCNc1c2ccccc2nc2cccc([N+](=O)[O-])c12", "TGI", "4.22 µM"],
  ["CC(=O)OCc1cc(=O)n(C)c2c3c4c(cc12)c(C)cc(=O)n4CO3", "TGI", "16.2 µM"],
  ["CCOC(=O)c1c2c(n3ccc(NC(=O)OC(C)(C)C)cc13)C(=O)c1ncccc1C2=O", "TGI", "0.38 µM"],
  ["CO/C(=N\\N=C\\c1ccc(Cl)cc1Cl)c1ccncc1", "TGI", "> 10 µM"],
  ["CSc1ccc(-c2cc(-c3ccc(NC(=O)CCCN4CCCC4)cc3)nc(-c3ccc(NC(=O)CCCN4CCCC4)cc3)c2)cc1", "TGI", "23.5 µM"],
  ["CC/C=C\\C/C=C\\C[C@H](O)C/C=C1/C(=O)C=C[C@H]1C/C=C\\CCC(=O)OC", "TGI", "> 8.25 µM"],
  ["CC(C)COC(=O)N1N=NC2C3OC(CC3=O)C21 (centres undefined)", "TGI", "> 100 µM"],
  ["Cc1ccc2c[c]1[Hg][CH2]COS2(=O)=O", "TGI", "42.1 µM"],
  ["Cn1c(-c2ccc[se]2)ccc1-c1ccc(CO)[se]1", "TGI", "> 100 µM"],
  ["COc1cc(C(=O)/C=C/c2c(-c3ccc(F)cc3)nc3sc(C)cn23)cc(OC)c1OC", "TGI", "> 100 µM"],
  ["COC(=O)c1ccc(CCc2cc(O)ccc2O)cc1", "TGI", "5.96 µM"],
  ["Nc1ccc(-c2nc3ccccc3[nH]2)c(O)c1", "TGI", "> 100 µM"],
  ["C=CCC12CCC(=O)C=C1CCC1(C2)OCCO1 (centres undefined)", "TGI", "> 100 µM"],
  ["CC(=NCCN(CCN=C(C)c1c(O)cc(C)oc1=O)CCN=C(C)c1c(O)cc(C)oc1=O)c1c(O)cc(C)oc1=O", "TGI", "> 100 µM"],
  ["COc1ccc(C(O)c2cc3c(N)c(C(=O)Nc4cccc(Cl)c4C)sc3nc2C)cc1 (centres undefined)", "TGI", "2.14 µM"],
  ["O=c1[nH]c(=O)n(COCc2ccccc2)c2ccc([N+](=O)[O-])cc12", "TGI", "> 100 µM"],
  ["CCOC(=O)c1cc2c(n1Cc1cc(OC)cc(OC)c1)-c1oncc1CCC2", "TGI", "0.0972 µM"],
  ["O=c1[nH]c(=O)n(C2CC(O)C(CO)O2)cc1C(OCC(F)(F)F)OCC(F)(F)F (centres undefined)", "TGI", "> 100 µM"]
]}
